# experimental_target: Muscarinic acetylcholine receptor M4 (Homo sapiens) (UniProt P08173)
# Sequence (P08173 whole entry, looked up): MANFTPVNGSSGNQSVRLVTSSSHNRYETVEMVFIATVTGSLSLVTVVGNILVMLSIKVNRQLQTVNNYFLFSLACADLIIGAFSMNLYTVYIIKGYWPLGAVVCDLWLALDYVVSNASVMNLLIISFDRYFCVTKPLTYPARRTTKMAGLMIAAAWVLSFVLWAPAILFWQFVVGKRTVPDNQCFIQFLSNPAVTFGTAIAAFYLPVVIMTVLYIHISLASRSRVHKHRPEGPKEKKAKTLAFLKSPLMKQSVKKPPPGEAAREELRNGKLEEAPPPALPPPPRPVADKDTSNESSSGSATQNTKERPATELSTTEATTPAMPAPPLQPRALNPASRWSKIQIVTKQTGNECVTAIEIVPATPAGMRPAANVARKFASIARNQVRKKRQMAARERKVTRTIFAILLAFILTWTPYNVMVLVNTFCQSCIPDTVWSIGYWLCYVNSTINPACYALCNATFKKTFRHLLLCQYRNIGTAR
# test_name: M4-linked GIRK flux change, two-sided – cell-based, HEK293 M4/GIRK, thallium flux, BTC-AM, M4 allosteric agonist project, primary screen (AID 625);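 also: thallium influx through GIRK channels coupled to M4 in HEK293 cells with BTC-AM dye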
# condition: at 10 µM, actives lie on both sides
Activity calls are given as the source filed them.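 The calls were made as follows: active = fluorescence slope after compound addition differing from the mean of all tested samples at 99.7% confidence, mostly higher but some lower; inactive = the rest.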
I'd appreciate it if you could supply fluorescence slope values for the items below.

Here is how some compounds turned out for fluorescence slope.
Cc1cc(C(=O)Nc2cc(C)n(Cc3ccc(Cl)cc3)n2)no1	0.0053 (inactive)
C=C(C)CSc1nnc2[nH]c(=O)cc(N)n12	0.00517 (inactive)
Cc1cc(S(=O)(=O)n2cnc3ccccc32)c(C)cc1Cl	0.00564 (inactive)
CCN1C(=O)/C(=C/N2CCc3ccccc32)SC1=S	0.00654 (inactive)

Your task in this section: give fluorescence slope for each listed record.
1. Cc1cnn(C(=S)NCc2ccco2)c1
2. CCCC(O)(CCN(C)C)c1ccc(OC)cc1 (stereo unspecified)

Ans:
["0.0043 (inactive)", "0.00506 (inactive)"]

Your task in this section: give fluorescence slope for each listed record.
1. COc1ccccc1OC(=O)c1ccc(SC)cc1OC
2. Cn1c(CCCNC(=O)c2ccccc2)nc2ccccc21

Ans:
1. 0.00466 (inactive)
2. 0.00743 (inactive)

Your task in this section: give fluorescence slope for each listed record.
1. CCCCNC(=O)OC(C)CNC(=O)Oc1cccc(C)c1 (stereo unspecified)
2. O=C(Cn1ncc2ccccc21)N1CCN(c2cccc(C(F)(F)F)c2)CC1
3. CCc1nc(N[C@@H](Cc2c[nH]c3ccccc23)C(=O)O)c2oc3ccccc3c2n1
4. CC(C)(C)NC(=O)Cn1nnc(-c2cccs2)n1
5. Cc1[nH]c(=O)[nH]c(=O)c1S(=O)(=O)N1CCN(c2cccc(Cl)c2)CC1

Ans:
1: 0.00498 (inactive); 2: 0.00602 (inactive); 3: 0.00556 (inactive); 4: 0.00413 (inactive); 5: 0.0059 (inactive)

Your task in this section: give fluorescence slope for each listed record.
1. O=C(CCC(=O)N1CCN(S(=O)(=O)c2ccccc2)CC1)c1cccs1
2. COc1ccc(S(=O)(=O)NC(CC(=O)NCc2ccco2)c2ccco2)cc1 (stereo unspecified)
3. CSc1ccccc1NS(=O)(=O)c1ccccc1
4. COc1ccc(-c2coc3c(CN4CCCCC4)c(O)c(CN4CCCCC4)c(O)c3c2=O)cc1
5. CCOc1ccccc1N1CCN(c2nc(N)c(C#N)c(CC#N)c2C#N)CC1
6. CC(C)(C)C(=O)N=C1SC2CS(=O)(=O)CC2N1c1ccc2c(c1)OCO2 (stereo unspecified)
7. CC1(C)CC(=O)C2=C(C1)N(Cc1ccco1)C(=O)C2(NC(=O)C1CCCCC1)C(F)(F)F (stereo unspecified)
8. CCOC(=O)CSC1=Nc2ccccc2C2=NC(CC(=O)NCc3cccs3)C(=O)N12 (stereo unspecified)

Ans:
1: 0.00592 (inactive); 2: 0.00653 (inactive); 3: 0.00445 (inactive); 4: 0.00504 (inactive); 5: 0.00416 (inactive); 6: 0.0052 (inactive); 7: 0.00581 (inactive); 8: 0.00528 (inactive)

====

# test_name: endothelial E-selectin expression blockers – imaging, HUVEC, immunofluorescence, MLSMR starter and 10KST1 sets, primary screen (AID 487);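 as to nuclei count: 100% = median nuclei count of all wells on the same plate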
# condition: HUVEC TNFalpha-induced E-selectin immunofluorescence imaging, at 2 µM; measured here: cell number, toxicity
I'd appreciate it if you could supply nuclei count values for the items below.
Numbers only, in %.

N#Cc1c(NC(=O)COC(=O)C2CC3C=CC2C3)oc(-c2ccccc2)c1-c1ccccc1 (stereo not given)	94.6
O=C(O)CCn1c(SCc2ccccc2)nc2ccccc21	93.6
CN(C)S(=O)(=O)n1cnc(-c2ccccc2)c1-c1ccccc1	107
CCn1cc(C(=O)NCC2COc3ccccc3O2)c2cc(OC)c(OC)cc2c1=O (stereo not given)	116

For record `c1ccc(-c2cc3c(nn2)CCc2nonc2-3)cc1` the listed nuclei count is 111

====

# test_name: TLR3 IRF3 reporter activation blockers – cell-based, poly I:C stimulus, luciferase, 10K MLSCN set, primary screen (AID 602277)
# condition: HEK293-TLR3 RL24 IRF3 luciferase reporter, at 10 µM, stronger effect = higher value
Please use yes (1) whenever inhibition is not below 10%, and no (0) whenever it is.

Cc1cccc(-c2noc(CCC(=O)Nc3ccccc3)n2)c1	no (0)
Cc1cccc(-n2ncc(C#N)c2N)c1	yes (1)
CCCS(=O)(=O)N1CCCC(C(=O)N2CCC(Cc3ccccc3)CC2)C1 (configuration not stated)	yes (1)
CC1Cc2ccccc2N1C(=O)Cc1cccs1 (configuration not stated)	no (0)
COc1ccc(C(C(C(=O)c2cccs2)N2CCOCC2)N2CCOCC2)cc1OC (configuration not stated)	no (0)

Q: Assess whether reported inhibition for `O=C(Nc1cccc2c1CCCC2)C1CCN(c2nnnn2-c2ccccc2)CC1` sits at 10% or higher.
Ans: yes (1)

Q: Assess whether reported inhibition for COC(=O)c1cccc(NC(=O)NC2CCCN2S(=O)(=O)c2ccc(Cl)cc2)c1 (configuration not stated) sits at 10% or higher.
Ans: yes (1)

====

# experimental_target: Voltage-gated potassium channel subunit beta-2 (Rattus norvegicus) (UniProt P62483)
# Sequence (P62483 whole entry, looked up): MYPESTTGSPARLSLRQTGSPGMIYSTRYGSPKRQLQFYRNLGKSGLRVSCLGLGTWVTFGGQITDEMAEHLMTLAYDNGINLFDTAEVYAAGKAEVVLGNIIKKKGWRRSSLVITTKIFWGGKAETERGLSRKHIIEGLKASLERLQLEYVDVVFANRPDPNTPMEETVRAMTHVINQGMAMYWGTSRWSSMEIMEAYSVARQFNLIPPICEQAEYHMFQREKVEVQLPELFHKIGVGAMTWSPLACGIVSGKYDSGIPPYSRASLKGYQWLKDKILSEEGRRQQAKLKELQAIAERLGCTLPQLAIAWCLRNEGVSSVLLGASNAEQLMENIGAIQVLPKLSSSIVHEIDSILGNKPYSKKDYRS
# test_name: enhancers of rat Kvbeta2 NADPH turnover – biochemical, NADPH fluorescence, primary screen (AID 623);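 also: fluorescence intensity change per second fitted from 20 to 320 s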
# condition: Recombinant KvBeta, NADPH fluorescence decrease slope, 10 min; at 10 µM; stronger effect = lower value
experimental_endpoint: NADPH fluorescence slope
Give bare numbers.

Here is how some compounds turned out for NADPH fluorescence slope.
Cc1cc(NC(=O)CSc2nnc(C3CC3)n2C)no1	-7.5e-05
Cc1nc2ccccc2c2oc(C(=O)NCc3ccccn3)cc12	7.6e-05

Your task in this section: give NADPH fluorescence slope for each listed record.
1. Cc1ccc(Nc2nnns2)cc1C
2. CCOC(=O)CSc1nnc(CNC(=O)c2ccc(OC)c(OC)c2)n1C
3. CCOC(=O)CCCn1nc(C)n2c(cc3sccc32)c1=O
4. Cc1ccc(C(=O)Nc2ccc3c(c2)OCO3)o1
5. CCn1c(=O)cc(SCC(=O)Nc2ccc3c(c2)OCO3)c2ccccc21

Ans:
["1.4e-05", "-2.7e-05", "8.7e-05", "-2.2e-05", "4e-05"]

Your task in this section: give NADPH fluorescence slope for each listed record.
1. Cc1ccccc1CS(=O)(=O)CCC(=O)N1CCN(c2ccc(N3CCOCC3)nn2)CC1
2. Cn1cc(CC(=O)Nc2cccc(C#N)c2)c2ccccc21

Ans:
["-8.7e-08", "-1.8e-05"]

Your task in this section: give NADPH fluorescence slope for each listed record.
1. O=C(NCCc1ccccc1)C1CCN(S(=O)(=O)N2CCC3(CC2)OCCO3)CC1
2. CC1=CC=CC2=NC(=O)CC(C)(C(=O)N(CC(=O)NC(C)C)C3CCCC3)N12 (configuration not stated)
3. O=C(NC1CCCCC1)C(c1ccco1)N(Cc1cccnc1)C(=O)C1COc2ccccc2O1 (configuration not stated)

Ans:
1: -4.5e-05; 2: 6.3e-05; 3: -1e-05

====

# test_name: endothelial E-selectin expression blockers – imaging, HUVEC, immunofluorescence, MLSMR starter and 10KST1 sets, primary screen (AID 487);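 as to inhibition: signal is fraction of cell area covered by stained E-selectin grains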
# condition: HUVEC TNFalpha-induced E-selectin immunofluorescence imaging, at 2 µM; stronger effect = higher value
I'd appreciate it if you could supply inhibition values for the items below.
One number for each entry, in %.

Here is how some compounds turned out for inhibition.
CC(=O)SCC(=O)N=c1sc2cc(F)ccc2n1C	3.4
O=C(CCn1nc(-c2ccc(Cl)cc2)ccc1=O)N1CCN(c2ccccn2)CC1	36.1
C=C(c1ccc(O)cc1)c1ccc(O)cc1	-75
N#CCCn1cnc2ccccc21	63.2
Cc1ccccc1NC(=O)C1CCC(C)(C(=O)O)C1(C)C (stereo not drawn)	-269

Your task in this section: give inhibition for each listed record.
1. CCC(=O)Oc1oc(-c2ccccc2)nc1C=Nc1ccccc1OC
2. Cc1ccc(S(=O)(=O)N2CCC(C(=O)N[C@@H](Cc3ccccc3)C(=O)O)CC2)cc1
3. CCOc1ccc(C(=O)N(CN2CCCC2=O)c2ccc(C)cc2)cc1
4. CC(C)c1nc2sc3c(c2c(=O)o1)CCCC3
5. CCc1nnc(NC(=O)C2CCN(c3nccc(C)n3)CC2)s1
6. O=C(c1cc2ccccc2oc1=O)N1CCSC1c1ccco1 (stereo not drawn)
7. COc1ccc(OCC(=O)N2CCN(C(=O)c3cccs3)CC2)cc1
8. CC1(C)C2CCC1(CS(=O)(=O)NCc1ccc(C(=O)O)cc1)C(=O)C2 (stereo not drawn)

Ans:
1: -41.7; 2: 41.9; 3: 14.5; 4: -11.8; 5: -13.3; 6: -24.5; 7: -51.4; 8: 46.1

====

# test_name: endothelial E-selectin expression blockers – imaging, HUVEC, immunofluorescence, MLSMR starter and 10KST1 sets, primary screen (AID 487);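 as to nuclei count: 100% = median nuclei count of all wells on the same plate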
# condition: HUVEC TNFalpha-induced E-selectin immunofluorescence imaging, at 2 µM; measured here: cell number, toxicity
I'd appreciate it if you could supply nuclei count values for the items below.
Answers are plain numbers, in %.

Cn1c(=O)c2c(nc(SCc3nn[nH]n3)n2Cc2ccccc2F)n(C)c1=O	96.9

Your task in this section: give nuclei count for each listed record.
1. CCOC(=O)CC1(CC(=O)OCC)NC(=O)c2c(C)sc(C(=O)OCC)c2N1
2. COc1ccc(/C(O)=C2/C(=O)C(=O)N(Cc3cccnc3)C2c2ccncc2)cc1F (stereo not given)
3. O=S(=O)(c1ccc(OCC(O)CN2CCc3ccccc3C2)cc1)N1CCOCC1 (stereo not given)
4. CC1(C)Cc2c(sc3ncnc(N)c23)CO1

Ans:
1. 112
2. 117
3. 132
4. 108

Your task in this section: give nuclei count for each listed record.
1. CC(=O)Nc1cccc(-c2nnc(-c3ccccc3)o2)c1
2. O=c1[nH]c2ccccc2n1CCCN1CCN(C(c2ccccc2)c2ccccc2)CC1
3. O=C(NCc1ccco1)c1cc2n(n1)C(C(F)(F)F)CC(c1ccc(F)cc1)N2 (stereo not given)
4. COC(=O)COc1ccc(S(=O)(=O)NCCC2=CCCCC2)cc1

Ans:
136
123
103
107

Origin of values: PubChem BioAssay
